We begin with a simple list: items and their reported Organ distribution of F-18 signal, lung.
# experimentSummary: Biodistribution: organ distribution of F-18 signal in mice
# Format: in vivo, male NMRI mice
# assaySetup: lung, 30 min post i.v. injection

Known Organ distribution of F-18 signal, lung results, listed for orientation:
> print(dat)
                                   compound                            propertylabel     measured
1  O=C(NCC(=O)N1CCN(c2ccc(OCc3ccccc3)cc2)CC1)c1cccc(OCC[18F])c1  Organ distribution of F-18 signal, lung  2.55 % ID/g
2  O=C(NCC(=O)N1CCN(c2ccc(OCc3ccccc3)cc2)CC1)c1ccc([18F])nc1 [Example 10e]  Organ distribution of F-18 signal, lung  1.93 % ID/g
3  O=C(NCC(=O)N1CCN(c2ccc(OCc3ccccc3)cc2)CC1)c1cccnc1[18F] [Example 12c]  Organ distribution of F-18 signal, lung  1.78 % ID/g
4  O=C(NCC(=O)N1CCN(c2ccc(OCc3ccccc3)cc2)CC1)c1ccnc([18F])c1 [Example 11c]  Organ distribution of F-18 signal, lung  1.65 % ID/g

Proceeding to the next compound to report its Organ distribution of F-18 signal, lung.
Which Organ distribution of F-18 signal, lung value belongs to O=C(NCC(=O)N1CCN(c2ccc(OCc3ccccc3)cn2)CC1)c1ccnc([18F])c1 [Example 14f] ?
1.27 % ID/g
